test-system: PRKCQ (Homo sapiens, UniProt Q04759)
Sequence (Q04759 whole entry): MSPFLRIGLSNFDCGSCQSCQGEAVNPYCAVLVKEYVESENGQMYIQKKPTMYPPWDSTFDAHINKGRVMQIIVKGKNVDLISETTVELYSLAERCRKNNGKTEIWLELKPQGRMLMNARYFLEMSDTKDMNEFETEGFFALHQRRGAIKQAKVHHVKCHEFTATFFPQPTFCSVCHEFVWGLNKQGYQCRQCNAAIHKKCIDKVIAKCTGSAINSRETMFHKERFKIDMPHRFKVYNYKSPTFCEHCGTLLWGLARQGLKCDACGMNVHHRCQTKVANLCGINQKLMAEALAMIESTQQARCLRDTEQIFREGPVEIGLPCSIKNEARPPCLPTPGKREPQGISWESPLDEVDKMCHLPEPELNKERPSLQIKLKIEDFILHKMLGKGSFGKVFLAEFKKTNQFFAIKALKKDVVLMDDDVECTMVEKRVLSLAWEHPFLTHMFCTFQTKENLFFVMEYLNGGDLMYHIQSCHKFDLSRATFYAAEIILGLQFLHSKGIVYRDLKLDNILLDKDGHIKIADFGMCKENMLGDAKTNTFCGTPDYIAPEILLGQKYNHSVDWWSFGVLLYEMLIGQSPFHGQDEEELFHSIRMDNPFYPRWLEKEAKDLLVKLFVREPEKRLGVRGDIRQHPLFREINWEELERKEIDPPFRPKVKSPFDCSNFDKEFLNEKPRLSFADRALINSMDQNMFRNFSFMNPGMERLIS
readout-label: Kd
Number first, unit second.

stdin: Value lookup for Kd; key = `c1cncc(-c2cccc(Nc3nccc(NC4CCCCC4)n3)c2)c1`
stdout: 1600 nM

---

test-system: FLT3-autoinhibited (Homo sapiens, UniProt P36888)
Sequence (P36888 564-993 limits assumed): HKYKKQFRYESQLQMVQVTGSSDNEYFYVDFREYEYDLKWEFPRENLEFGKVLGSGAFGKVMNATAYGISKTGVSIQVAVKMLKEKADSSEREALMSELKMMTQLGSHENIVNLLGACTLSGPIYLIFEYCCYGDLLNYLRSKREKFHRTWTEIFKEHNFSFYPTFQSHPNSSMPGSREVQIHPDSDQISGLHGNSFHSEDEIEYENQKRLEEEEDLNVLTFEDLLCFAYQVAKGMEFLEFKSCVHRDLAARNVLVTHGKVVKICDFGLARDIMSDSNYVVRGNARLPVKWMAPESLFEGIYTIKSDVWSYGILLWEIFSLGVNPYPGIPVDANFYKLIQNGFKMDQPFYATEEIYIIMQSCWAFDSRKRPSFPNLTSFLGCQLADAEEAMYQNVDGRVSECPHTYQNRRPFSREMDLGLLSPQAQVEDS
I'd appreciate it if you could supply pKd values for the items below.
To interpret pKd, take it as minus log10 of a concentration measured in moles per litre.

stdin: Value lookup for pKd; key = `CC(C)Nc1ccnc(Nc2cccc(-c3cccnc3)c2)n1`
stdout: 7.11

stdin: Value lookup for pKd; key = `c1cncc(-c2cccc(Nc3nccc(NC4CCCCC4)n3)c2)c1`
stdout: 5.96
